System: Thyroperoxidase (TPO), gene 54314
Experiment: CCTE_Simmons_AUR_rTPO: CCTE's Amplex UltraRed Assay for Thyroperoxidase (TPO) Inhibition, Simmons Lab (AID 2283662);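 note: potency for loss of signal meaning inhibition of peroxidase activity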
Active and inactive are the calls of the source. Rule for the calls: active = hit-call score of the fitted dose curve at least 0.9, where 1 is the maximum; inconclusive = response in the unintended direction; inactive = score below 0.9.
endpoint: AC50

| molecule | AC50 |
| --- | --- |
| COP(=S)(OC)Oc1ccc(SC)c(C)c1 | 34.3 µM (active) |

Req: Entry CC1(c2ccc(Oc3ccccc3)cc2)OC(=O)N(Nc2ccccc2)C1=O (centres undefined) : reported AC50 = ?
Resp: 2.45 µM (active)

Req: Could you share which AC50 value was measured for CN1CSC(=S)N(C)C1 ?
Resp: 6.52 µM (active)

Req: Find the recorded AC50 belonging to CNC(=O)Oc1cccc(N=CN(C)C)c1 and report it.
Resp: 19.8 µM (active)
